Target: Hmlalpha2 (UniProt P0CY09)
Sequence: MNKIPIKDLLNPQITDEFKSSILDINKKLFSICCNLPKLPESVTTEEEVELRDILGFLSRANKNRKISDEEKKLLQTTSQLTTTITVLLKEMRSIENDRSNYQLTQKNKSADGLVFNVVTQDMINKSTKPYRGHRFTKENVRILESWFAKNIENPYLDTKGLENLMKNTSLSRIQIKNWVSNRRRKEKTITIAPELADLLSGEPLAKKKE
Experiment: PBM E-score (8-mer binding enrichment) (E-score (-0.5 to 0.5)); higher = stronger / more preferred TF binding
Conditions: protein concentration: 200 nM; construct: GST-full length
The full ranking holds about 33,000 sequences; the median of “E-score (-0.5 to 0.5)” is about -0.04, and the highest 2% start at about 0.36. The sample as a whole holds a higher share of the highest values than the screen did.
MEASUREMENT NAME: PBM E-score
Give a plain numeric answer without units written out.

MONOMER SEQUENCE: ACACGTTC
PBM E-score: 0.303
--
MONOMER SEQUENCE: ATACGTAT
PBM E-score: 0.308

So what does the record say about PBM E-score for ATATTACC ?
0.187

So what does the record say about PBM E-score for ACACGTAA ?
0.396

So what does the record say about PBM E-score for CTATTACC ?
-0.0498

So what does the record say about PBM E-score for ATATTACA ?
0.439

So what does the record say about PBM E-score for ACTTAGGA ?
-0.0292

So what does the record say about PBM E-score for CCGCGTAG ?
0.294

So what does the record say about PBM E-score for CTATTAGA ?
-0.0387

So what does the record say about PBM E-score for ATATTACG ?
0.352

So what does the record say about PBM E-score for CGCTAAAC ?
0.0834

So what does the record say about PBM E-score for CCGCGTAA ?
0.426
